Target: KRAS G12C and SOS1 proteins (Homo sapiens, UniProt Q07889)
Sequence (Q07889 1-1333): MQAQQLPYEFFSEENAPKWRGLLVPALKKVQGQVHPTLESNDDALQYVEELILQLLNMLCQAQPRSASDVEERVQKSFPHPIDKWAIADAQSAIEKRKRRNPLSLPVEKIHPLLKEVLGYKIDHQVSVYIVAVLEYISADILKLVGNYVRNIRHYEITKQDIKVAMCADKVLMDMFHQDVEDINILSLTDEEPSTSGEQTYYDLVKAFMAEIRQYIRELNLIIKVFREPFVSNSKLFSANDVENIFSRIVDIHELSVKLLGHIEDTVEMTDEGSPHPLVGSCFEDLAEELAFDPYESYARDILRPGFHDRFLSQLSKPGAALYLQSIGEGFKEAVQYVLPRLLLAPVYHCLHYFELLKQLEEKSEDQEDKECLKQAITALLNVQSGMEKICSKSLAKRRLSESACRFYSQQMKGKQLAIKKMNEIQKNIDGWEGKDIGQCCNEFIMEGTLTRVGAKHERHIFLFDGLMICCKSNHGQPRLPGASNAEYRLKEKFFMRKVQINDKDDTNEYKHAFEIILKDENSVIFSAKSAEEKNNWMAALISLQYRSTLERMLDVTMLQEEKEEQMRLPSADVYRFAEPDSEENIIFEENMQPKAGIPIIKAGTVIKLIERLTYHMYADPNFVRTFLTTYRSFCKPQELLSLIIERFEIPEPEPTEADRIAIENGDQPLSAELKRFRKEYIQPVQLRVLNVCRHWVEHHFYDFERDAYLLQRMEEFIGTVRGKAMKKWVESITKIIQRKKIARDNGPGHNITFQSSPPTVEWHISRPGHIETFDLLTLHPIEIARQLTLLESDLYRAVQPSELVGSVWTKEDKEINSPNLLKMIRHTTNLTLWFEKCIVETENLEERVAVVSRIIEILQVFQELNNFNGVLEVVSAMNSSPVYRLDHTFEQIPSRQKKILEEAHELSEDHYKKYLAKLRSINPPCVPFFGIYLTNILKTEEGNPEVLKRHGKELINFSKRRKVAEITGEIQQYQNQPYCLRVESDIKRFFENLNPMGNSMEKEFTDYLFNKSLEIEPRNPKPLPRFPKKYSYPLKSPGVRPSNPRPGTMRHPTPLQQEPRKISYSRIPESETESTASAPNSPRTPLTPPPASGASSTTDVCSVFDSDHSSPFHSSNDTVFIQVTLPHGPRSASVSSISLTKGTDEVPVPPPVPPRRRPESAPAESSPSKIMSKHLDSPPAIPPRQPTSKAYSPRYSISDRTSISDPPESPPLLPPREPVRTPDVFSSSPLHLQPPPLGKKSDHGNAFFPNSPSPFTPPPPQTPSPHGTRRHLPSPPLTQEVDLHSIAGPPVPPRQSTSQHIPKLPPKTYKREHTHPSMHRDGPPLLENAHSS
Assay: KRAS-G12C/SOS1 binding assay (HTRF)
Details: Tag1-SOS1 / Tag2-KRAS G12C, 10 μM GTP
metric name: IC50

Some molecules with known IC50 results, for comparison:
molecule	result
Cc1nc(N[C@H](C)c2cccc(C(F)(F)CO)c2)c2cc(-c3ccc(=O)n(C)c3)c3nncn3c2n1 [Example 6]	< 0.1 µM
COc1cc2c(cc1C1CCOCC1)c(N[C@H](C)c1cccc(C(F)(F)CO)c1)nc1ccnn12 [Example 51]	0.1 to 0.5 µM
COc1cc2c(cc1-c1ccc(=O)n(C)c1)c(N[C@H](C)c1cccc(C(F)F)c1F)nc1ccnn12 [Example 48]	0.1 to 0.5 µM

Hey, can you go through the list below and give me IC50 for every item?
1. Cc1nc(N[C@H](C)c2cccc(C(F)(F)CO)c2)c2cc(C3CCOCC3)c3nncn3c2n1 [Example 2]
2. Cc1nc(N[C@H](C)c2cccc3c2CCC3(F)F)c2cc(-c3ccc(=O)n(C)c3)c3nncn3c2n1 [Example 3]
3. COc1cc2c(cc1C1CCOCC1)c(N[C@H](C)c1cccc3c1CCC3(F)F)nc1ccnn12 [Example 50]

A.
1. < 0.1 µM
2. 0.1 to 0.5 µM
3. 0.1 to 0.5 µM

Hey, can you go through the list below and give me IC50 for every item?
1. COc1cc2c(cc1C1=CCOCC1)c(N[C@H](C)c1cccc3c1CCC3(F)F)nc1ccnn12 [Example 49]
2. C[C@@H](Nc1nc2ccnn2c2cc(=O)n(C3CCOCC3)cc12)c1cccc(C(F)(F)CO)c1 [Example 60]
3. Cc1nc(N[C@H](C)c2cccc(C(F)F)c2F)c2cc(-c3ccc(=O)n(C)c3)c3nncn3c2n1 [Example 4]
4. COc1cc2c(cc1C1CCOCC1)c(N[C@H](C)c1cccc(C(F)F)c1F)nc1ccnn12 [Example 47]

A.
1: 0.1 to 0.5 µM; 2: < 0.1 µM; 3: < 0.1 µM; 4: 0.5 to 5 µM

Q. Give IC50 for Cc1nc(N[C@H](C)c2cccc(C(F)F)c2F)c2cc(C3CCOCC3)c3nncn3c2n1 [Example 5]
A. < 0.1 µM
